Assignment: determine reported delta for the given binders.
- system_under_test: recombinant human-Dectin-1 mouse Fc fusion (human) (UniProt Q9BXN2)
- assay_text: Octet BLI, delta between the two X values
Give bare numbers, in %.

Look over these answered cases.
binder	delta (%)
2M24A.1.13 hFab (Fab, V domains shown) VH: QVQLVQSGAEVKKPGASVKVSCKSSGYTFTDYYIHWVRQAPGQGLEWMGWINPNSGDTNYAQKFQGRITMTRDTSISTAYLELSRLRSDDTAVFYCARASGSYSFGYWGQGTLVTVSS VL: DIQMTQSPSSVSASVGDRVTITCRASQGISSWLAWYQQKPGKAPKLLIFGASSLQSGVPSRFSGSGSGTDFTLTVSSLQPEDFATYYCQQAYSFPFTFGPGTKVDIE	100
2M24A.1.15 (Fab, V domains shown) VH: QVQLVQSGAEVKKPGASVKVSCKSSGYTFTDYYIHWVRQAPGQGLEWMGWINPNSGDTNYAQKFQGRITMTRDTSISTAYLELSRLRSDDTAVFYCAANSGSYSFGYWGQGTLVTVSS VL: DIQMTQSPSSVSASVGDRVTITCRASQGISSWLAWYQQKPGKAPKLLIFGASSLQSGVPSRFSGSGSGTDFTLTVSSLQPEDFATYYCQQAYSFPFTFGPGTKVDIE	62
2M24A.1.22 (Fab, V domains shown) VH: QVQLVQSGAEVKKPGASVKVSCKSSGYTFTDYYIHWVRQAPGQGLEWMGWINPNSGDTNYAQKFQGRITMTRDTSISTAYLELSRLRSDDTAVFYCARNSGSYSFGAWGQGTLVTVSS VL: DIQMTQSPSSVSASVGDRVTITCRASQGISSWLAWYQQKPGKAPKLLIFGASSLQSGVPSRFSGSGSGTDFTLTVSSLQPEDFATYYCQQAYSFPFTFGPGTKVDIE	15
2M24A.1.9 hFab (Fab, V domains shown) VH: QVQLVQSGAEVKKPGASVKVSCKSSGYTFTDYYIHWVRQAPGQGLEWMGWINPNSGDTNYAQKFQGRITMTRDTSISTAYLELSRLRSDDTAVFYCARNSGSASFGYWGQGTLVTVSS VL: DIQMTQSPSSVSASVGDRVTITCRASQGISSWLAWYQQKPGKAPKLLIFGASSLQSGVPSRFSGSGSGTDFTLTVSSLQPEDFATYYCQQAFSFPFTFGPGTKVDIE	100

Give the measured delta of 2M24A.1.18 (Fab, V domains shown) VH: QVQLVQSGAEVKKPGASVKVSCKSSGYTFTDYYIHWVRQAPGQGLEWMGWINPNSGDTNYAQKFQGRITMTRDTSISTAYLELSRLRSDDTAVFYCARNSGAYSFGYWGQGTLVTVSS VL: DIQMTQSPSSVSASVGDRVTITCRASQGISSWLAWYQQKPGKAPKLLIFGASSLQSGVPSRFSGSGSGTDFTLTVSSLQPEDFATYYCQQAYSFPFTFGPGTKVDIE .
9
